system: respiratory syncytial virus F protein; test: Immunization studies, anti-RSV-F titers; type: in vivo; conditions: anti-RSV-F titer; BALB/c; course A = days 0 & 21; 2 weeks after second dose; liposomes with 0.1 μg vA317 replicon (naked: 1 μg)
Here the recorded 2wp2 pool 2 is given for each entry.
Answer field: number only, no words.

Would you please look over these solved cases?
CCCCC/C=C\C/C=C\CCCCCCCCOc1cc(COC(=O)OCCCN(C)C)cc(OCCCCCCCC/C=C\C/C=C\CCCCC)c1 :: 7800
CCCCC/C=C\C/C=C\CCCCCCCC(=O)OCc1cc(COC(=O)CCCCCCC/C=C\C/C=C\CCCCC)cc(COC(=O)OCCCN(CC)CC)c1 :: 20793

Okay, next one:
Lab request: please report 2wp2 pool 2 under test system respiratory syncytial virus F protein for CCCCC/C=C\C/C=C\CCCCCCCC(=O)OCc1cc(COC(=O)CCCCCCC/C=C\C/C=C\CCCCC)cc(COC(=O)CCN(C)C)c1
18669

###

test system: respiratory syncytial virus F protein; assay: Immunization studies, anti-RSV-F titers; assay type: in vivo; conditions: anti-RSV-F titer; BALB/c; course A = days 0 & 21; 2 weeks after second dose; liposomes with 0.1 μg vA317 replicon (naked: 1 μg)
2wp2 pool 2 less than 1000 is true; 2wp2 pool 2 greater than or equal to 1000 is false.

The following compounds have reported results that may help.
CCCCC/C=C\C/C=C\CCCCCCCCOc1cc(COC(=O)CCCN(C)C)cc(OCCCCCCCC/C=C\C/C=C\CCCCC)c1 :: false
CCCCC/C=C\C/C=C\CCCCCCCCOc1cc(CN(C)C)cc(OCCCCCCCC/C=C\C/C=C\CCCCC)c1 :: false
CCCCC/C=C\C/C=C\CCCCCCCCOc1cc(C(=O)OCCCN(C)C)cc(OCCCCCCCC/C=C\C/C=C\CCCCC)n1 :: false
CCCCCCCC/C=C\CCCCCCCCOc1cc(OCCCCCCCC/C=C\CCCCCCCC)cc(C2OCC(CN3CCCC3)O2)c1 (centres unmarked) :: false

Now for another entry.
Given CCCCC/C=C\C/C=C\CCCCCCCC(=O)Oc1cc(COC(=O)CCN(C)C)cc(OC(=O)CCCCCCC/C=C\C/C=C\CCCCC)c1 , is recorded 2wp2 pool 2 strictly lower than 1000?
true

###

system: respiratory syncytial virus F protein; assay: Immunization studies, anti-RSV-F titers; type: in vivo; conditions: anti-RSV-F titer; BALB/c; course A = days 0 & 21; 2 weeks after first dose; liposomes with 0.1 μg vA317 replicon (naked: 1 μg)
2wp1 pool 1 less than 1000 is Fulfilled; 2wp1 pool 1 greater than or equal to 1000 is Not fulfilled.

CCCCC/C=C\C/C=C\CCCCCCCCOc1cc(CCCOC(=O)CCN(C)C)cc(OCCCCCCCC/C=C\C/C=C\CCCCC)c1 :: Not fulfilled
CCCCC/C=C\C/C=C\CCCCCCCCNC(=O)c1cc(COC(=O)CCCN(C)C)cc(C(=O)NCCCCCCCC/C=C\C/C=C\CCCCC)c1 :: Fulfilled
CCCCC/C=C\C/C=C\CCCCCCCCOc1cc(C(=O)OCCCN(C)C)cc(OCCCCCCCC/C=C\C/C=C\CCCCC)n1 :: Not fulfilled
CCCCC/C=C\C/C=C\CCCCCCCC(=O)OCc1cc(COC(=O)CCCCCCC/C=C\C/C=C\CCCCC)cc(COC(=O)OCCN(C)C)c1 :: Not fulfilled
CCCCC/C=C\C/C=C\CCCCCCCC(=O)OCc1cc(COC(=O)CCCCCCC/C=C\C/C=C\CCCCC)cc(COC(=O)CCN(C)C)c1 :: Not fulfilled

Given CCCCC/C=C\C/C=C\CCCCCCCC(=O)OCc1cc(COC(=O)CCCCCCC/C=C\C/C=C\CCCCC)cc(COC(=O)OCCCN(CC)CC)c1 , is recorded 2wp1 pool 1 strictly lower than 1000?
Not fulfilled

###

Experiment: Particle size of lipid nanoparticle (dynamic light scattering, Malvern Zetasizer)
Type: physicochemical
Conditions: FVII siRNA LNP; Chol/DSPC/S010, molar ratio 45/44/9/2; Z-average
Source text: The lipid nanoparticles have a size of about 1 to about 2,500 nm, about 1 to about 1,500 nm, about 1 to about 1,000 nm, in a sub-embodiment about 50 to about 600 nm, in a sub-embodiment about 50 to about 400 nm, in a sub-embodiment about 50 to about 250 nm, and in a sub-embodiment about 50 to about 150 nm. Unless indicated otherwise, all sizes referred to herein are the average sizes (diameters) of the fully formed nanoparticle, as measured by dynamic light scattering on a Malvern Zetasizer. […]
Label 1 (yes) when Size (nm) is at or above 100 nm; anything below gets 0 (no).

The following molecules have reported results that may help.
CCCCCCCC(=O)OCC(CCOc1cc(CN(C)C)cc(OCCC(COC(=O)CCCCCCC)OC(=O)CCCCCCC)c1)OC(=O)CCCCCCC (centres unmarked) :: 1 (yes)
CCCCC/C=C\C/C=C\CCCCCCCC(=O)OCCCCOc1cc(CN(C)C)cc(OCCCCOC(=O)CC(CCCCCCCC)CCCCCCCC)c1 :: 0 (no)
CCCCC/C=C\C/C=C\CCCCCCCCOC(=O)CCC(=O)OCc1cc(COC(=O)CCC(=O)OCCCCCCCC/C=C\C/C=C\CCCCC)cc(CN(C)C)c1 :: 1 (yes)
CCCCCCCCCCCCOC(=O)CCCCCOc1cc(CN(C)C)cc(OCCCCCC(=O)OCCCCCCCCCCCC)c1 :: 0 (no)
CCCCCCCCCCOC(=O)CCCCCCCOc1cc(CN(C)C)cc(OCCCCCCCC(=O)OCCCCCCCCCC)c1 :: 1 (yes)
CCCCCCCC(=O)OCCCCCCCCCCOC(=O)CCC(=O)OCc1cc(COC(=O)CCC(=O)OCCCCCCCCCCOC(=O)CCCCCCC)cc(CN(C)C)c1 :: 1 (yes)

Now for another entry.
// inclusive: Size (nm) at least 100 nm? input: CCCCCCCC(=O)OCC(COC(=O)CCCCCCC)OC(=O)CCC(=O)OCc1cc(COC(=O)CCC(=O)OC(COC(=O)CCCCCCC)COC(=O)CCCCCCC)cc(CN(C)C)c1
1 (yes)

###

test system: respiratory syncytial virus F protein; assay: Immunization studies, anti-RSV-F titers; assay type: in vivo; settings: anti-RSV-F titer; BALB/c; course A = days 0 & 21; 2 weeks after second dose; liposomes with 0.1 μg vA317 replicon (naked: 1 μg)
measure: 2wp2 pool 1
Answer field: number only, no words.

Would you please look over these solved cases?
CCCCC/C=C\C/C=C\CCCCCCCCOc1cc(CCCOC(=O)CCN(C)C)cc(OCCCCCCCC/C=C\C/C=C\CCCCC)c1 :: 24648
CCCCC/C=C\C/C=C\CCCCCCCC(=O)OCc1cc(COC(=O)CCCCCCC/C=C\C/C=C\CCCCC)cc(COC(=O)CCN(C)C)c1 :: 12529
CCCCC/C=C\C/C=C\CCCCCCCC(=O)Oc1cc(COC(=O)CCN(C)C)cc(OC(=O)CCCCCCC/C=C\C/C=C\CCCCC)c1 :: 10

Okay, next one:
Please report the recorded 2wp2 pool 1 for CCCCC/C=C\C/C=C\CCCCCCCCOc1cc(COC(=O)OCCCN(C)C)cc(OCCCCCCCC/C=C\C/C=C\CCCCC)c1 .
11315

###

Here the recorded PDI is given for each entry.
assay: Polydispersity index (PDI) of lipid nanoparticle (dynamic light scattering); assay type: physicochemical; settings: FVII siRNA LNP; Chol/DSPC/S010, molar ratio 45/44/9/2
Answer field: number only, no words.

Would you please look over these solved cases?
CCCCCCCC(=O)OCC(COC(=O)CCCCCCC)OC(=O)CCC(=O)OCc1cc(COC(=O)CCC(=O)OC(COC(=O)CCCCCCC)COC(=O)CCCCCCC)cc(CN(C)C)c1 [Ex. 107] :: 0.071
CCCCCCCCCCOC(=O)CCCCCCCOc1cc(CN(C)C)cc(OCCCCCCCC(=O)OCCCCCCCCCC)c1 [Example 57] :: 0.059

Okay, next one:
Please report the recorded PDI for CCCCC/C=C\C/C=C\CCCCCCCCOc1cc(COC(=O)CCN(C)C)cc(OCCCCCCCC/C=C\C/C=C\CCCCC)c1 [Example 14] .
0.059

###

Experiment: pKa measurement of cationic lipid (TNS fluorescence)
Assay type: physicochemical
Conditions: probe TNS; pKa of the cationic lipid of formula (I); Table 4; read-out: pKa
Experimental: Unless indicated otherwise, all pKa's referred to herein were measured at standard temperature and pressure. Also, unless otherwise indicated, all references to pKa are references to pKa measured using the following technique. […] The fluorescence intensity values were then normalized to the value at lowest pH. The normalized fluorescence intensity vs. pH chart was then plotted in the Microsoft Excel software. […] The pKa determined using this method is precise to about 0.1 pKa units.
measure: pKa
Answer field: number only, no words.

CCCCCCCC(=O)OCCCCCCCCCCOc1cc(CN(C)C)cc(OCCCCCCCCCCOC(=O)CCCCCCC)c1OCCCCCCCCCCOC(=O)CCCCCCC :: 5.75

Please report the recorded pKa for CCCCCCCC(CCCCCCC)CCCC(=O)OCCCCOc1cc(CN(C)C)cc(OCCCCOC(=O)CCCC(CCCCCCC)CCCCCCC)c1 .
5.87

Cool, now CCCCCCCC(CCCCCCC)CCCC(=O)OCc1cc(COC(=O)CCCC(CCCCCCC)CCCCCCC)cc(CN(C)C)c1
5.46

Cool, now CCCCCCCCCC(=O)OCCCCCCCCOc1cc(COC(=O)CCN(C)C)cc(OCCCCCCCCOC(=O)CCCCCCCCC)c1
6.08
